Hey, just so you know, these numbers are from ChEMBL document CHEMBL4699666.

Assay: Drug uptake in human HeLa cells at 5 uM incubated for 2 hrs by flow cytometry relative to CPP9
Assay type: ADME, cell-based
Non-standard residues stand in square brackets, D forms with d. Residues, ends and D or L forms follow the SMILES beside them. 2Nal = N[C@@H](Cc1ccc2ccccc2c1)C(=O)O; Pen = CC(C)(S)[C@H](N)C(=O)O; Tle = CC(C)(C)[C@H](N)C(=O)O
readout_label: Drug uptake
State the value with its unit after it.

Request: Fill blank: measured Drug uptake of the molecule CC(=O)N[C@@H](CS)C(=O)N[C@H](CCCNC(=N)N)C(=O)N[C@H](CCCNC(=N)N)C(=O)N[C@@H](CCCNC(=N)N)C(=O)N[C@@H](Cc1ccc2ccccc2c1)C(=O)N[C@@H](Cc1c[nH]c2ccccc12)C(=O)N[C@@H](CCC(N)=O)C(=O)N[C@H](C(=O)N[C@H](C(=O)N[C@@H](CCCNC(=N)N)C(=O)N[C@H](C(=O)O)C(C)(C)C)[C@@H](C)O)C(C)(C)S (Ac-C[dR][dR]R[2Nal]WQ[Pen]TR[Tle]-OH) is ____.
Result: 23%
